Data provenance: PubChem BioAssay (Tox21)

PROTOCOL: qHTS assay to identify small molecule antagonists of the thyroid receptor (TR) signaling pathway - cell viability counter screen (AID 743064); note: nearly all actives have a fitted effect of over 50% in size
PROTOCOL CONDITIONS: GH3.TRE-Luc viability, CellTiter-Fluor, 24 h; series mostly up to 70.3 µM
Inconclusive results are not listed. Activity calls are given as the source filed them. Calls come from the whole dose curve; as a rule, active = well fitted cell-killing curve with a large enough effect in the repeat runs; inconclusive = weak or mixed curves, or effect the other way; inactive = no such curve, though single readings can be large or run the other way.
Labels: yes = active, no = inactive

{"columns": ["COMPOUND", "ASSIGNED CLASS"],
 "data": [
  ["CCn1c2ccccc2c2cc(N)ccc21", "no"],
  ["Nc1nc2ccccc2[nH]1", "no"],
  ["CC(C)(O)CCC(C)(C)O", "no"],
  ["CC1=C(C=O)C(C)(C)CC=C1", "no"],
  ["O=C(Cl)c1cccc(C(=O)Cl)c1", "no"],
  ["CCN1CCCC1CNC(=O)c1cc(S(=O)(=O)CC)c(N)cc1OC (stereo unspecified)", "no"],
  ["O", "no"],
  ["CCCCC/C=C/CC1CC(=O)OC1=O (stereo unspecified)", "no"],
  ["CC(C)C(=O)c1c(C(C)C)nn2ccccc12", "no"],
  ["CCOc1ccc2c(c1)C(C)=CC(C)(C)N2", "no"],
  ["O=C(O)CP(=O)(O)O", "no"],
  ["O=C(O)c1cccc(C(=O)O)c1", "no"],
  ["COC(=O)c1cccc(C(=O)OC)c1", "no"],
  ["O=C1Nc2ccccc2C1(c1ccc(O)cc1)c1ccc(O)cc1", "yes"],
  ["CCN(CC)C(=S)SSC(=S)N(CC)CC", "yes"],
  ["CC(C)CCOC(=O)c1ccc(N(C)C)cc1", "no"]
]}

###

PROTOCOL: qHTS assay to identify small molecule antagonists of the estrogen related receptor (ERR) signaling pathway from Tox21 library (AID 1224848); note: nearly all actives have a fitted effect of over 50% in size
PROTOCOL CONDITIONS: ERR reporter cell line, luciferase antagonist mode, 18 h; series mostly up to 92.4 µM
Records with an inconclusive call do not appear. Calls of active or inactive are those of the source. The call rests on the fitted dose curve; in most records, active means well fitted inhibition curve with a large enough effect in the repeat runs; inconclusive means weak or mixed curves; inactive means no such curve, though single readings can be large or run the other way.
Possible outcomes: t for active, f for inactive

{"columns": ["COMPOUND", "ASSIGNED CLASS"],
 "data": [
  ["CC(C(O)c1ccc(O)cc1)N1CCC(Cc2ccccc2)CC1 (stereo unspecified)", "f"],
  ["CC[C@]1(O)C[C@@H]2CN(CCc3c([nH]c4ccccc34)[C@@](C(=O)OC)(c3cc4c(cc3OC)N(C)[C@H]3[C@@](O)(C(=O)OC)[C@H](OC(C)=O)[C@]5(CC)C=CCN6CC[C@]43[C@@H]65)C2)C1", "t"],
  ["CCCC(=O)c1ccccc1", "f"],
  ["CC1=C(C=O)C(C)(C)CC=C1", "f"],
  ["CC1=CC(=O)c2ccccc2C1=O", "t"],
  ["CC(C)C(=O)c1c(C(C)C)nn2ccccc12", "f"]
]}

###

PROTOCOL: qHTS assay to identify small molecule agonists of the progesterone receptor (PR) signaling pathway - cell viability counter screen (AID 1346799); note: nearly all actives have a fitted effect of over 45% in size
PROTOCOL CONDITIONS: PR-UAS-bla HEK293T viability, CellTiter-Glo luminescence, 16 h; series mostly up to 92.4 µM
Results filed as inconclusive are left out. Activity calls are given as the source filed them. The call rests on the fitted dose curve.
Classes used: active, inactive

{"columns": ["MOLECULE", "ASSIGNED CLASS"],
 "data": [
  ["Cc1cc(Cc2cc(C)cc(C(C)(C)C)c2O)c(O)c(C(C)(C)C)c1", "active"],
  ["C=CC(=O)OCCCCCCOC(=O)C=C", "inactive"],
  ["Cc1cc(C(C)(C)C)c(O)c(C(C)(C)C)c1", "inactive"],
  ["c1ccc2c(c1)CCCC2C1=NCCN1 (stereo unspecified)", "inactive"],
  ["CC(=O)OCC1=C(C(=O)O)N2C(=O)[C@@H](NC(=O)Cc3cccs3)[C@H]2SC1", "inactive"],
  ["Cc1cc(C2(c3cc(C)c(O)cc3C)OS(=O)(=O)c3ccccc32)c(C)cc1O", "inactive"],
  ["CCCCN(CCO)CCCC", "inactive"],
  ["CC(C)(C)c1ccccc1", "inactive"],
  ["CCCCC(CC)COC(=O)CC(C(=O)OCC(CC)CCCC)S(=O)(=O)O (stereo unspecified)", "active"],
  ["CN(C)c1ccc2nc3ccc(=[N+](C)C)cc-3sc2c1", "inactive"],
  ["CC(C)CCOC(=O)c1ccc(N(C)C)cc1", "inactive"],
  ["C=C(C)C(=O)O", "inactive"],
  ["CCN1CCCC1CNC(=O)c1cc(S(=O)(=O)CC)c(N)cc1OC (stereo unspecified)", "inactive"],
  ["CCC(CO)(CO)COCC(CC)(CO)CO", "inactive"],
  ["COc1ccc(COC(C)=O)cc1", "inactive"],
  ["CC(C)(C)NCC(O)COc1ccccc1OCC1CCCO1 (stereo unspecified)", "inactive"],
  ["CC(C)(C)NC(=O)[C@@H]1CN(Cc2cccnc2)CCN1C[C@@H](O)C[C@@H](Cc1ccccc1)C(=O)N[C@H]1c2ccccc2C[C@H]1O", "inactive"],
  ["C=CC(=O)OCCCCCCCC", "inactive"],
  ["Clc1ccc2c(c1)C(N1CCNCC1)=Nc1ccccc1O2", "inactive"],
  ["CCCN[C@H]1CCc2nc(N)sc2C1", "inactive"],
  ["CCn1cc(C(=O)O)c(=O)c2cc(F)c(N3CCNC(C)C3)c(F)c21 (stereo unspecified)", "inactive"],
  ["O=Cc1ccc(Cl)cc1", "inactive"],
  ["OCCOCCN1CCN(C(c2ccccc2)c2ccc(Cl)cc2)CC1 (stereo unspecified)", "active"],
  ["CC(=O)N[C@@H](CS)C(=O)O", "inactive"],
  ["Oc1ccc(Cl)cc1Cc1cc(Cl)ccc1O", "active"],
  ["C=C(C)C1CC=C(C)C(OC(C)=O)C1 (stereo unspecified)", "inactive"],
  ["OCC(CO)N[C@H]1C[C@](O)(CO)[C@@H](O)[C@H](O)[C@H]1O", "inactive"],
  ["CCN(CC)c1ccc2c(C)cc(=O)oc2c1", "inactive"],
  ["NCCCCCC(=O)O", "inactive"],
  ["N[C@@H]1CONC1=O", "inactive"],
  ["COc1ccc(Cc2cnc(N)nc2N)cc1OC", "inactive"]
]}
